Origin of values: patent US20230072421A1

Each entry below lists one item and its recorded Th-227 in prostate value.
- Method: Biodistribution study in LNCaP tumor-bearing mice (Th227 counted in organs)
- Format: in vivo, SCID mice
- Experimental setup: 0.25 h; 1500 kBq/kg
Return type: number; implicit unit % ID Th-227/g organ.

Solved cases below.
[
  {
    "Compound": "Cc1cc(C(=O)NCCN(CCCN(CCNC(=O)c2cc(C)n(CC(=O)O)c(=O)c2[O-])CCNC(=O)c2cc(C)n(CC(=O)NCC3CCC(C(=O)NC(Cc4cnc5ccccc5c4)C(=O)NCCCCC(NC(=O)NC(CCC(=O)O)C(=O)O)C(=O)O)CC3)c(=O)c2[O-])CCNC(=O)c2cc(C)n(CC(=O)NCC3CCC(C(=O)NC(Cc4cnc5ccccc5c4)C(=O)NCCCCC(NC(=O)NC(CCC(=O)O)C(=O)O)C(=O)O)CC3)c(=O)c2[O-])c([O-])c(=O)n1CC(=O)O.[227Th+4] (stereo not drawn) [Example 22-C dimer-227Th]",
    "Number": 5.47
  },
  {
    "Compound": "O=C([O-])CN1CCN(CC(=O)[O-])CCN(CC(=O)NCC2CCC(C(=O)NC(Cc3ccc4ccccc4c3)C(=O)NCCCCC(NC(=O)NC(CCC(=O)O)C(=O)O)C(=O)O)CC2)CCN(CC(=O)[O-])CC1.[227Th+4] (stereo not drawn) [Example 1-B-227Th]",
    "Number": 7.80
  }
]

Continue with the compound presented below.
Recorded result, O=C([O-])CN1CCN(CC(=O)[O-])CCN(CC(=O)NCc2ccc(C(=O)N[C@@H](Cc3ccc4ccccc4n3)C(=O)NCCCC[C@H](NC(=O)N[C@@H](CCC(=O)O)C(=O)O)C(=O)O)nc2)CCN(CC(=O)[O-])CC1.[227Th+4] [Example 34-B-227Th] , Th-227 in prostate: 0.00

###

- Method: Biodistribution study in LNCaP tumor-bearing mice (Th227 counted in organs)
- Assay type: in vivo, SCID mice
- Experimental setup: 24 h; 1500 kBq/kg
Property name: Th-227 in Tumor (% ID Th-227/g organ)
Return type: number; implicit unit % ID Th-227/g organ.

Solved cases below.
[
  {
    "Compound": "O=C([O-])CN1CCN(CC(=O)[O-])CCN(CC(=O)NCc2ccc(C(=O)N[C@@H](Cc3ccc4ccccc4n3)C(=O)NCCCC[C@H](NC(=O)N[C@@H](CCC(=O)O)C(=O)O)C(=O)O)nc2)CCN(CC(=O)[O-])CC1.[227Th+4] [Example 34-B-227Th]",
    "Th-227 in Tumor (% ID Th-227/g organ)": 10.56
  },
  {
    "Compound": "O=C([O-])CN1CCN(CC(=O)[O-])CCN(CC(=O)NCC2CCC(C(=O)NC(Cc3ccc4ccccc4c3)C(=O)NCCCCC(NC(=O)NC(CCC(=O)O)C(=O)O)C(=O)O)CC2)CCN(CC(=O)[O-])CC1.[227Th+4] [Example 1-B-D-227Th]",
    "Th-227 in Tumor (% ID Th-227/g organ)": 0.95
  },
  {
    "Compound": "O=C([O-])CN1CCN(CC(=O)[O-])CCN(CC(=O)NCC2CCC(C(=O)NC(Cc3ccc4ccccc4c3)C(=O)NCCCCC(NC(=O)NC(CCC(=O)O)C(=O)O)C(=O)O)CC2)CCN(CC(=O)[O-])CC1.[227Th+4] (stereo not shown) [Example 1-B-227Th]",
    "Th-227 in Tumor (% ID Th-227/g organ)": 9.81
  }
]

Continue with the compound presented below.
Recorded result, Cc1cc(C(=O)NCCN(CCCN(CCNC(=O)c2cc(C)n(CC(=O)O)c(=O)c2[O-])CCNC(=O)c2cc(C)n(CC(=O)NCC3CCC(C(=O)NC(Cc4cnc5ccccc5c4)C(=O)NCCCCC(NC(=O)NC(CCC(=O)O)C(=O)O)C(=O)O)CC3)c(=O)c2[O-])CCNC(=O)c2cc(C)n(CC(=O)NCC3CCC(C(=O)NC(Cc4cnc5ccccc5c4)C(=O)NCCCCC(NC(=O)NC(CCC(=O)O)C(=O)O)C(=O)O)CC3)c(=O)c2[O-])c([O-])c(=O)n1CC(=O)O.[227Th+4] (stereo not shown) [Example 22-C dimer-227Th] , Th-227 in Tumor: 2.23
